Data provenance is ChEMBL document CHEMBL1759891.

target: Beta-secretase 1 (Homo sapiens, UniProt P56817); experiment: Inhibition of human BACE-1
Sequence (P56817 whole entry): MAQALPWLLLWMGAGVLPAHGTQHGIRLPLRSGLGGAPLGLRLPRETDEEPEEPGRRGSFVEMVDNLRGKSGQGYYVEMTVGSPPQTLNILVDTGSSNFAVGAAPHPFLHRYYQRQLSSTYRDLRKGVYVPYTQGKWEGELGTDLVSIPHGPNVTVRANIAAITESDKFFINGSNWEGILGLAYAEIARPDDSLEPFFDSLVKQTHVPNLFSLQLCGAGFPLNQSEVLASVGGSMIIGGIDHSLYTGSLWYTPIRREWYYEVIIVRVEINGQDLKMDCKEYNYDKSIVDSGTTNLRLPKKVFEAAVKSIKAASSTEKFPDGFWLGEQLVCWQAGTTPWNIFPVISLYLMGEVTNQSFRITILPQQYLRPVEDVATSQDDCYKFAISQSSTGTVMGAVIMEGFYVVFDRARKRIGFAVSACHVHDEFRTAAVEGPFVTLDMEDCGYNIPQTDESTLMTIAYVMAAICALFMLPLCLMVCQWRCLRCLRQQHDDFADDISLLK
Recorded endpoint: IC50 (µM)

[[record]]
compound = "CCCOCc1cccc(C[C@@H]2CS(=O)(=O)C[C@H](NCc3cccc(C(C)C)c3)[C@H]2O)c1 (racemic)"
recorded_endpoint = "IC50"
readout_unit = "µM"
value_reported = 1.1

[[record]]
compound = "O=S1(=O)C[C@@H](Cc2ccc(O)c(Br)c2)[C@H](O)[C@@H](NCc2ccccc2)C1"
recorded_endpoint = "IC50"
readout_unit = "µM"
value_reported = 66

[[record]]
compound = "CNC(=O)Oc1ccc(C[C@@H]2CS(=O)(=O)C[C@H](NCc3cccc(C(C)C)c3)[C@H]2O)cc1Br"
recorded_endpoint = "IC50"
readout_unit = "µM"
value_reported = 0.06

[[record]]
compound = "CC(C)c1cccc(CN[C@H]2COC[C@@H](Cc3ccc(O)c(Br)c3)[C@@H]2O)c1"
recorded_endpoint = "IC50"
readout_unit = "µM"
value_reported = 55

